B1: Eps15 P-short peptide [not stated] / human β2-appendage (700–937) used for ITC [human] (parent complex)
chain 1: SFGDGFADFSTL
chain 2: IGMAPGGYVAPKAVWLPAVKAKGLEISGTFTHRQGHIYMEMNFTNKALQHMTDFAIQFNKNSFGVIPSTPLAIHTPLMPNQSIDVSLPLNTLGPVMKMEPLNNLQVAVKNNIDVFYFSCLIPLNVLFVEDGKMERQVFLATWKDIPNENELQFQIKECHLNADTVSSKLQNNNVYTIAKRNVEGQDMLYQSLKLTNGIWILAELRIQPGNPNYTLSLKCRAPEVSQYIYQVYDSILKN

Variants of: B1
Assay Summary: ITC
Outcome Measure: pKd
pKd field: float, defined as -log10 of concentration (mol/L).

Lookup: Find the recorded pKd belonging to chain 2 Y189V and report it.
Found: 4.23
